// data source = patent US9796711B2

Target: ΔF508-CFTR (Homo sapiens, UniProt P13569, DEL508-508)
Construct: host or cells: CFBE41o-, doxycycline-inducible
Sequence (P13569 with tags, fused parts or gaps DEL508-508): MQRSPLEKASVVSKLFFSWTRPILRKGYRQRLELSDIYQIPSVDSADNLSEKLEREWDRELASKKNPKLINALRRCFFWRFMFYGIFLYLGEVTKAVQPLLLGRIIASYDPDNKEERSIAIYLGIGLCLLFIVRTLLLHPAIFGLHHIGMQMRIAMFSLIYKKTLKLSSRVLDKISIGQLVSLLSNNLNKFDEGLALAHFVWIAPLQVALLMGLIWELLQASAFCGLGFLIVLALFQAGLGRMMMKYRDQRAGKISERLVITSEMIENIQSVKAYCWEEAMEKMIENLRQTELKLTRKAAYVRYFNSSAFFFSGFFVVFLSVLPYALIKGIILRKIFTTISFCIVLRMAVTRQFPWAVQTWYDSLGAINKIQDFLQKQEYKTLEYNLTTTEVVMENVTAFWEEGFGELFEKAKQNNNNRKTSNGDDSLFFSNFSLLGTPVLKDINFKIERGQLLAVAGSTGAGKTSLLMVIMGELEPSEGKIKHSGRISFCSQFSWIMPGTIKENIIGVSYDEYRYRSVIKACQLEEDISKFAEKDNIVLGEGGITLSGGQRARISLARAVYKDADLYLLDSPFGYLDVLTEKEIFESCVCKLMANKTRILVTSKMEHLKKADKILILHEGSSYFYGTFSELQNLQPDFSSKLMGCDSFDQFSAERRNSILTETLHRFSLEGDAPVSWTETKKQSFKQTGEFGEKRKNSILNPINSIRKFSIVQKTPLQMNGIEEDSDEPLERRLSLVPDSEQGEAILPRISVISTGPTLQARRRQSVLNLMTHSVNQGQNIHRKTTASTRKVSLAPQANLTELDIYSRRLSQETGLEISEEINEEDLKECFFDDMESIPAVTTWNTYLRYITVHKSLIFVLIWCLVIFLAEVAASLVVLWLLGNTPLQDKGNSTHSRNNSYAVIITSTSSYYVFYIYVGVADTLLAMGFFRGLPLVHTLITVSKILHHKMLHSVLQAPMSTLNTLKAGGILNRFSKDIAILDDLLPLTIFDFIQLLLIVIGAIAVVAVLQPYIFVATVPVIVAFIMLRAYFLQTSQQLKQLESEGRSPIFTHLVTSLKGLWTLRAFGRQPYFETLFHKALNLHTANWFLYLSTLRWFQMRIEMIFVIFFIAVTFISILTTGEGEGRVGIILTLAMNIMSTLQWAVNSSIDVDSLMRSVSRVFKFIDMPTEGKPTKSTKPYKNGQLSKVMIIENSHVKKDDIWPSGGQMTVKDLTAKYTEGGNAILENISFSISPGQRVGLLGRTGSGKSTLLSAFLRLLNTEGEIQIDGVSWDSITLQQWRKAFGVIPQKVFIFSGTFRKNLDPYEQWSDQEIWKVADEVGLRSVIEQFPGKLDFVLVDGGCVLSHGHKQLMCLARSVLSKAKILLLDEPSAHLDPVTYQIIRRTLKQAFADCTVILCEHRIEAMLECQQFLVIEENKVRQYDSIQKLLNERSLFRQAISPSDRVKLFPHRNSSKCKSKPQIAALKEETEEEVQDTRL
Test: CFTR cell surface levels using HRP-tagged ΔF508-CFTR expressing CFBE cells, in the presence of a co-corrector
Type: cell-based
Conditions: HRP-tagged ΔF508-CFTR expressing CFBE cells, in the presence of 3 μM co-corrector
Endpoint label: % Activation (%)
Numbers only, in %.

Before answering, review these 4 worked examples.
Compound	% Activation / %
O=C(O)c1cc(N2CCC(N3CCOCC3)CC2)c2c(C3CCC3)nn(-c3ccc(OC(F)F)cc3)c2n1 [compound 914]	429.25
CC(C)c1nn(C2CCCCC2)c2nc(C(=O)O)cc(-c3cnc(N4CCOCC4)nc3)c12 [compound 80]	341.92
O=C(O)c1cc(N2CCN(CC3OCCO3)CC2)c2c(C3CCC3)nn(-c3ccccc3)c2n1 [compound 684]	384.65
Cc1nn(-c2ccccc2)c2nc(C(=O)O)cc(N3CCN(S(C)(=O)=O)CC3)c12 [compound 146]	134.9

# context switch: different compound, same % Activation
### Prompt Could you tell me which % Activation is on file for Cc1nn(-c2ccccc2)c2nc(C(=O)O)cc(N3CCC(F)(F)C3)c12 [compound 299] ?
### Response 194.8

====

Target: ΔF508-CFTR (Homo sapiens, UniProt P13569, DEL508-508)
Construct: host or cells: CFBE41o-, doxycycline-inducible
Assay: CFTR cell surface levels using HRP-tagged ΔF508-CFTR expressing CFBE cells, in the presence of a co-corrector
Format: cell-based
Details: HRP-tagged ΔF508-CFTR expressing CFBE cells, in the presence of 3 μM co-corrector
Endpoint label: % Activation (%)
Answers are plain numbers, in %.

Molecule	Recorded value
CC(C)c1nn(-c2cccc(N3CCOCC3)n2)c2nc(C(=O)O)cc(-c3ccc(N4CCOCC4)cc3)c12	514.48
O=C(O)c1cc(N2CCC3(CC2)CCN(C2COC2)CC3)c2c(C3CCC3)nn(-c3ccc(F)cc3)c2n1	372.85

I need % Activation for every entry listed below, if you could help.
1. Cc1nn(-c2ccccc2)c2nc(C(=O)O)cc(-c3ccc(N4CCCC(O)C4)cc3)c12 (stereo not drawn)
2. COC1CN(C2CCN(c3cc(C(=O)O)nc4c3c(C3CCC3)nn4-c3ccc(F)cc3)CC2)C1
3. CC(=O)N1CCC(c2cc(C(=O)O)nc3c2c(C)nn3-c2ccccc2)CC1
4. O=C(O)c1cc(N2CCC(N3CCOCC3)CC2)c2c(C3CCC3)nn(-c3ccc(OC(F)(F)F)cc3)c2n1
5. Cc1cccc(-n2nc(C(C)C)c3c(N4CCC5(CC4)CN(C)C(=O)O5)cc(C(=O)O)nc32)c1
6. Cc1cccc(-n2nc(C(C)C)c3c(N4CC5(CCCCO5)C4)cc(C(=O)O)nc32)c1
7. O=C(O)c1cc(OCCCF)c2c(C3CCC3)nn(-c3ccccc3)c2n1

### Response
1: 364; 2: 332.45; 3: 133.3; 4: 498.4; 5: 349.55; 6: 301.45; 7: 274.95

====

Field: pEC50. Provide a value for each of the molecules that follow.
Molecular target: ΔF508-CFTR (Homo sapiens, UniProt P13569, DEL508-508)
Construct: host or cells: CFBE41o-, doxycycline-inducible
Assay: CFTR cell surface levels using HRP-tagged ΔF508-CFTR expressing CFBE cells, in the presence of a co-corrector
Type: cell-based
Conditions: HRP-tagged ΔF508-CFTR expressing CFBE cells, in the presence of 3 μM co-corrector; read-out: EC50
One number for each entry, as −log10 of the molar value.

Molecule	Experimental target	pEC50
O=C(O)c1cc(N2CCC3(CC2)CCN(C2COC2)CC3)c2c(C3CCC3)nn(-c3ccc(F)cc3)c2n1	ΔF508-CFTR (Homo sapiens, UniProt P13569, DEL508-508)	6.99
O=C(O)c1cc(N2CC(F)(F)C[C@H]2CO)c2c(C3CCC3)nn(-c3ccccc3)c2n1	ΔF508-CFTR (Homo sapiens, UniProt P13569, DEL508-508)	5.81
CO[C@@H]1CCN(c2cc(C(=O)O)nc3c2c(C2CCC2)nn3-c2ccccc2)C1	ΔF508-CFTR (Homo sapiens, UniProt P13569, DEL508-508)	5.97
CN(c1ccc(-c2cc(C(=O)O)nc3c2c(C2CCC2)nn3-c2cccc(N3CCCC3)c2)cn1)C1CCOCC1	ΔF508-CFTR (Homo sapiens, UniProt P13569, DEL508-508)	6.30
CN(C)[C@@H]1CCN(c2cc(C(=O)O)nc3c2c(C2CCC2)nn3-c2ccccc2)C1	ΔF508-CFTR (Homo sapiens, UniProt P13569, DEL508-508)	5.68

I need pEC50 for every entry listed below, if you could help.
1. O=C(O)c1cc(N2CCCCCC2)c2c(C3CCC3)nn(-c3ccccc3)c2n1
2. CC(C)N1CCC(Oc2cc(C(=O)O)nc3c2c(C2CCC2)nn3-c2ccccc2)CC1
3. CC(C)c1nn(-c2ccc(F)cc2)c2nc(C(=O)O)cc(N3CCC(C(C)(C)O)CC3)c12
4. O=C(O)c1cc(OCCC2CCOCC2)c2c(C3CCC3)nn(-c3ccccc3)c2n1
5. Cc1nn(-c2ccccc2)c2nc(C(=O)O)cc(N3CCC(NS(C)(=O)=O)CC3)c12

### Response
1. 6.26
2. 5.70
3. 6.72
4. 6.43
5. 5.12

====

Biological target: ΔF508-CFTR (Homo sapiens, UniProt P13569, DEL508-508)
Construct: host or cells: CFBE41o-, doxycycline-inducible
Assay: CFTR cell surface levels using HRP-tagged ΔF508-CFTR expressing CFBE cells, in the presence of a co-corrector
Format: cell-based
Settings: HRP-tagged ΔF508-CFTR expressing CFBE cells, in the presence of 3 μM co-corrector
Endpoint label: % Activation (%)
Give bare numbers, in %.

I need % Activation for every entry listed below, if you could help.
1. CC(C)OC1CCN(c2cc(C(=O)O)nc3c2c(C2CCC2)nn3-c2ccccc2)CC1
2. CC(C)OC(=O)N1CC[C@@H]2CN(c3cc(C(=O)O)nc4c3c(C3CCC3)nn4-c3ccccc3)CC[C@@H]21 (racemic)
3. O=C(O)c1cc(-c2ccc(N3CCOCC3)cc2)c2c(C3CCC3)nn(-c3cc(F)cc(F)c3)c2n1

### Response
[388.6, 539.05, 438.65]

### Prompt Could you tell me which % Activation is on file for `CN(C1CCN(C2CN(c3cc(C(=O)O)nc4c3c(C3CCC3)nn4-c3ccccc3)C2)CC1)C1COC1` ?
### Response 208.5

====

Field: EC50. Provide a value for each of the compounds that follow.
Target: ΔF508-CFTR (Homo sapiens, UniProt P13569, DEL508-508)
Construct: host or cells: CFBE41o-, doxycycline-inducible
Assay: CFTR cell surface levels using HRP-tagged ΔF508-CFTR expressing CFBE cells, intrinsic corrector capacity
Type: cell-based
Conditions: HRP-tagged ΔF508-CFTR CFBE41o- cells, compounds alone (intrinsic corrector capacity), 20 hours at 33° C.; read-out: EC50

Before answering, review these 2 worked examples.
1. COCCN(C)c1ccc(-c2cc(C(=O)O)nc3c2c(C(C)C)nn3-c2cccc(N3CCC3)c2)cn1 875 nM
2. CC(C)c1nn(-c2cccc(N3CCOCC3)c2)c2nc(C(=O)O)cc(-c3ccc(N(C)C4CCOCC4)nc3)c12 674 nM

### Prompt Could you tell me which EC50 is on file for `COCC1CCN(c2cc(C(=O)O)nc3c2c(C(C)C)nn3-c2cccc(C)c2)CC1` ?
### Response 666 nM

====

Field: EC50. Provide a value for each of the compounds that follow.
Biological target: ΔF508-CFTR (Homo sapiens, UniProt P13569, DEL508-508)
Construct: host or cells: CFBE41o-, doxycycline-inducible
Experiment: CFTR cell surface levels using HRP-tagged ΔF508-CFTR expressing CFBE cells, in the presence of a co-corrector
Assay type: cell-based
Conditions: HRP-tagged ΔF508-CFTR expressing CFBE cells, in the presence of 3 μM co-corrector; read-out: EC50
Give the number first and the unit second.

1. O=C(O)c1cc(N2CCC(N3CCOCC3)CC2)c2c(C3CCC3)nn(-c3cc(F)ccc3F)c2n1 1380 nM
2. CC(C)c1nn(-c2cccc(N3CCOCC3)c2)c2nc(C(=O)O)cc(-c3cnc(N(C)C)nc3)c12 525 nM
3. O=CN1CCCN(CC2CCN(c3cc(C(=O)O)nc4c3c(C3CCC3)nn4-c3ccccc3)CC2)CC1 180 nM
4. CN1CCN(c2ccc(-c3cc(C(=O)O)nc4c3c(C3CCC3)nn4C3CCCCC3)cn2)CC1 605 nM

# context switch: different compound, same EC50
### Prompt Could you tell me which EC50 is on file for `Cc1nn(-c2ccccc2)c2nc(C(=O)O)cc(-c3ccc(N4CCN(CCO)CC4)cc3)c12` ?
### Response 3340 nM
